Test system: M. catarrhalis A894
OBSERVED PROPERTY: MIC

O=C1CSc2ccc(N3C[C@H](CCNC[C@@H]4Cc5cccc6ncc(=O)n4c56)OC3=O)cc2N1 : ≤ 0.063 µg/mL
O=C1COc2ccc(N3C[C@H](CCNCC4Cc5cccc6ncc(=O)n4c56)OC3=O)nc2N1 (mixture of isomers) : ≤ 0.063 µg/mL
O=C1CSc2ccc(N3C[C@@H](CCNCC4Cc5cccc6ccc(=O)n4c56)OC3=O)cc2N1 (mixture of isomers) : ≤ 0.063 µg/mL

Could you report MIC for every entry in the following list?
1. O=C1CSc2ccc(N3C[C@@H](CNCC4Cn5c(=O)ccc6nccc(c65)O4)OC3=O)cc2N1 (mixture of isomers)
2. O=C1COc2ccc(N3C[C@H](CCNCC4Cc5ccnc6ccc(=O)n4c56)OC3=O)cc2N1 (mixture of isomers)
3. O=C1COc2ccc(N3C[C@@H](CNCC4Cn5c(=O)ccc6nccc(c65)O4)OC3=O)cc2N1 (mixture of isomers)
4. O=C1CSc2ccc(N3C[C@@H](CNCC4Cc5c(F)ccc6ccc(=O)n4c56)OC3=O)cc2N1 (mixture of isomers)

1. ≤ 0.063 µg/mL
2. 4 µg/mL
3. 0.5 µg/mL
4. ≤ 0.063 µg/mL
